# Tested on: 521955-158-R2-J5-PDC complex spheroid growth, % test/control;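 further: spheroids exposed to agents for 7 days before readout; 100% = DMSO vehicle control viability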
# EXPERIMENT_SUMMARY: Anticancer human tumor 521955-158-R2-J5-PDC patient-derived pancreatic carcinoma cell line growth inhibition [Asc]
# REPORTED_CONDITIONS: second compound 1 µM; first compound 0.949 µM; stronger effect = lower value
MEASUREMENT_LABEL: viability, T/C (%)
Numbers only; they are read as %.

Recorded viability, T/C for CCN1C(C(=O)NC23CCC(C(=O)O)(CC2)CC3)C(c2cccc(Cl)c2F)C2(C(=O)Nc3cc(Cl)ccc32)C12CCCCC2 (centres undefined) + CNC(C)C(=O)NC1CN(S(=O)(=O)c2cccc(S(=O)(=O)N3CCC4CCC(C(=O)NC(c5ccccc5)c5ccccc5)N4C(=O)C(NC(=O)C(C)NC)C3)c2)CCC2CCC(C(=O)NC(c3ccccc3)c3ccccc3)N2C1=O with 521955-158-R2-J5-PDC complex spheroid growth, % test/control, please?
105

Give the reported viability, T/C for Cc1nc(N2CCC3(CC2)COC(C)C3N)c(CO)nc1Sc1ccnc(N)c1Cl (centres undefined) + Cc1c(S(C)(=O)=O)c(-c2cc(F)cc(N3CCN(c4ccc(NS(=O)(=O)c5ccc(NC(CCN6CCC(C(=O)OCCCP(=O)(O)O)CC6)CSc6ccccc6)c(S(=O)(=O)C(F)(F)F)c5)cc4)CC3)c2)c(-c2ccc(Cl)cc2)n1C(C)C (system: 521955-158-R2-J5-PDC complex spheroid growth, % test/control).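 Further: spheroids exposed to agents for 7 days before readout; 100% = DMSO vehicle control viability.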
44.4

Which measured viability, T/C belongs to CCN1C(C(=O)NC23CCC(C(=O)O)(CC2)CC3)C(c2cccc(Cl)c2F)C2(C(=O)Nc3cc(Cl)ccc32)C12CCCCC2 (centres undefined) + Cc1c(S(C)(=O)=O)c(-c2cc(F)cc(N3CCN(c4ccc(NS(=O)(=O)c5ccc(NC(CCN6CCC(C(=O)OCCCP(=O)(O)O)CC6)CSc6ccccc6)c(S(=O)(=O)C(F)(F)F)c5)cc4)CC3)c2)c(-c2ccc(Cl)cc2)n1C(C)C , tested on 521955-158-R2-J5-PDC complex spheroid growth, % test/control?;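 further: spheroids exposed to agents for 7 days before readout; 100% = DMSO vehicle control viability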
67.7

Others:
# get_value(readout= viability, T/C, system= 521955-158-R2-J5-PDC complex spheroid growth, % test/control) for Cc1nc(N2CCC3(CC2)COC(C)C3N)c(CO)nc1Sc1ccnc(N)c1Cl (centres undefined) + CNC(C)C(=O)NC1CN(S(=O)(=O)c2cccc(S(=O)(=O)N3CCC4CCC(C(=O)NC(c5ccccc5)c5ccccc5)N4C(=O)C(NC(=O)C(C)NC)C3)c2)CCC2CCC(C(=O)NC(c3ccccc3)c3ccccc3)N2C1=O;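 further: spheroids exposed to agents for 7 days before readout; 100% = DMSO vehicle control viability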
57.2
